- ASSAY_PROCEDURE: COS7 lysate on small-molecule microarray, probe aHis, 635 nm (AID 1123);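 also: z-score combines 667nm fluorescence intensity with signal-to-noise per printed compound spot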
- EXPERIMENTAL_CONDITIONS: COS7 cell lysate, fluorescence, higher = more signal
Entries and their measured composite z-score follow.

COc1cc(OC)c(C(O)C2C=CC3C(=O)N(c4ccccc4)C(=O)C3N2Nc2ccc(C(C)C)cc2)cc1Br (configuration not stated) ... 2.76
COC(=O)[C@@]1(Cc2ccc(OC)cc2)[C@H]2c3cc(C(=O)N4CCCC4)n(CCn4cc([N+](=O)[O-])nc4C)c3C[C@H]2CN1C(=O)c1ccccc1 ... 3.37
C=CC1c2cc(O)c(OC)cc2CCN1C (configuration not stated) ... -0.0207
COc1ccc(C(=O)Nc2cccc(CN3C(=O)[C@@]4(O[C@@H](CC(=O)N5CCC[C@H]5CO)[C@H]([Si](C)(C)c5ccc(OC)cc5)[C@H]4C)c4ccccc43)c2)cc1 ... 1.75
CCOC(=O)C1=C[C@@H](C(C)(C)C)N(S(=O)(=O)c2ccc(C)cc2)[C@H]1c1ccc(C#N)cc1 ... 2.72

Enquiry: For the molecule "CCOC(=O)C1=CC[C@@H](c2ccc(OC)cc2)N(S(=O)(=O)c2ccc(C)cc2)[C@H]1c1ccc(C)cc1" , what composite z-score is on record?
Return: 1.99

Enquiry: For the molecule "COC(=O)C(CC#Cc1ccc2c(c1)[C@]1(C(=O)N2)[C@H](c2ccccc2OCCO)N2[C@H](c3ccccc3)[C@H](c3ccccc3)OC(=O)[C@H]2[C@@H]1C(=O)N1CCc2cc(OC)c(OC)cc2C1)C(=O)OC" , what composite z-score is on record?
Return: 1.19

Enquiry: For the molecule "COCCCNC(=O)[C@@]1(CCC(=O)OC(C)(C)C)COC(c2ccc(OCCCO)cc2)=N1" , what composite z-score is on record?
Return: 3

Enquiry: For the molecule CCCCC(O)C1C=CC2C(=O)N(c3ccccc3)C(=O)C2N1Nc1ccc(C#N)cc1 (configuration not stated) , what composite z-score is on record?
Return: 2.68

Enquiry: For the molecule "CC(C)C[C@@H]1NC(=O)[C@@H]2C[C@H](C(=O)NCCCCCCNC(=O)CS)[C@H](c3cccc(OCCO)c3)N2C1=O" , what composite z-score is on record?
Return: 1.94

Enquiry: For the molecule Cc1ccccc1C(O)C1C=CC2C(=O)N(c3ccccc3)C(=O)C2N1Nc1ccccc1 (configuration not stated) , what composite z-score is on record?
Return: 2.94

Enquiry: For the molecule "O=C1C[C@]2(c3ccc([N+](=O)[O-])cc3)C(=O)N(C3CC3)c3cc(CO)ccc3[C@H]2N1C1CCCCC1" , what composite z-score is on record?
Return: 0.792

Enquiry: For the molecule "CC(C)C(=C=CC[C@H](O)c1ccccc1OCCO)C[C@H](O)COCc1ccccc1" , what composite z-score is on record?
Return: 1.08

Enquiry: For the molecule "C=C(CCCC)C(=O)CC[C@@H](OC(=O)c1ccccc1-c1ccccc1C(=O)O)c1ccccc1OCCO" , what composite z-score is on record?
Return: -0.467

Enquiry: For the molecule CN1C(=O)C2C(C1=O)C1C=C(CCCO)C2C(C2CC2)N1Cc1cccc(OC(F)(F)F)c1 (configuration not stated) , what composite z-score is on record?
Return: 2.55

Enquiry: For the molecule "O=C1O[C@H](Cc2ccccc2)[C@@H]2[C@H]3C=CCCC=C3CN2[C@H]1Cc1ccc(O)cc1" , what composite z-score is on record?
Return: -0.265

Enquiry: For the molecule "C=C(COC)C(=O)CC[C@H](OC(=O)c1cccnc1)c1ccc(OCCO)cc1" , what composite z-score is on record?
Return: 0.709
